# Tested on: CRABP-2 expression of fibroblasts
# Assay explanation: CRABP-2 protein expression in fibroblasts (Western blot, densitometric scanning)
# Type: cell-based, Human
# Experimental setup: Example 3: 500 nM retinoids and 0.1 μl of a 10% anise seed extract; 4 h anise pre-treatment, 48 h incubation; +/− SD of triplicates
Measured CRABP-2 levels, listed per entry for reference.

- CC1=C(/C=C/C(C)=C/C=C/C(C)=C/CO)C(C)(C)CCC1: 0.66 +/− 0.19
- CCCCCCCCCCCCCCCC(=O)OC/C=C(C)/C=C/C=C(C)/C=C/C1=C(C)CCCC1(C)C [Retinyl Palmitate]: 0.83 +/− 0.5
- CC(=O)OC/C=C(C)/C=C/C=C(C)/C=C/C1=C(C)CCCC1(C)C [Retinyl acetate]: 1.02 +/− 0.56

Please turn your attention to the following entry.
CRABP-2 levels recorded for this molecule, CCCCC/C=C\C/C=C\CCCCCCCC(=O)OC/C=C(C)/C=C/C=C(C)/C=C/C1=C(C)CCCC1(C)C [Retinyl linoleate] , is 0.99 +/− 0.13

---

# key: entry, value: As % of control
# System: CRABP-2 expression of fibroblasts
# Assay explanation: CRABP-2 protein expression in fibroblasts (Western blot, densitometric scanning)
# Type: cell-based, Human
# Experimental setup: Example 3: 500 nM retinoids and 0.1 μl of a 10% anise seed extract; control as 100%

- CC(=O)OC/C=C(C)/C=C/C=C(C)/C=C/C1=C(C)CCCC1(C)C [Retinyl acetate]: 237 % of control

For reference, reported As % of control for CCCCCCCCCCCCCCCC(=O)OC/C=C(C)/C=C/C=C(C)/C=C/C1=C(C)CCCC1(C)C [Retinyl Palmitate] stands at 193 % of control

The recorded As % of control for CCCCC/C=C\C/C=C\CCCCCCCC(=O)OC/C=C(C)/C=C/C=C(C)/C=C/C1=C(C)CCCC1(C)C [Retinyl linoleate] is 231 +/− 30 % of control

Recorded result, CC1=C(/C=C/C(C)=C/C=C/C(C)=C/CO)C(C)(C)CCC1 [Retinol] , As % of control: 154 +/− 44 % of control

---

The compounds listed here are annotated with their CRABP-2 levels.
# Test system: CRABP-2 expression of fibroblasts
# Assay explanation: CRABP-2 protein expression in fibroblasts (Western blot, densitometric scanning)
# Format: cell-based, Human
# Experimental setup: Example 2: 100 nM retinoids and 1.0 μl of a 10% anise seed extract; 4 h anise pre-treatment, 48 h incubation; +/− SD of triplicates
# Description: Dried […] seeds (Pimpinella anisum) was purchased from local markets and powdered in a dry grinder. […] The bands in the film were quantitated by densitometric scanning, the data from triplicate samples were calculated as % of control and expressed in the following tables as % increase over control (with control as 100%) +/−SD of triplicates.

• CC1=C(/C=C/C(C)=C/C=C/C(C)=C/CO)C(C)(C)CCC1 = 1.36 +/− 0.17
• CCCCC/C=C\C/C=C\CCCCCCCC(=O)OC/C=C(C)/C=C/C=C(C)/C=C/C1=C(C)CCCC1(C)C [Retinyl linoleate] = 1.23 +/− 0.28

Short answer for CC(=O)OC/C=C(C)/C=C/C=C(C)/C=C/C1=C(C)CCCC1(C)C [Retinyl acetate] : CRABP-2 levels was 2.38 +/− 0.81

Looking up CCCCCCCCCCCCCCCC(=O)OC/C=C(C)/C=C/C=C(C)/C=C/C1=C(C)CCCC1(C)C [Retinyl Palmitate] , I found its CRABP-2 levels recorded as 1.12 +/− 0.15
